# Tested on: NCI-H226 lung
# test: NCI tumour cell line growth inhibition, 48 h
measured-quantity: TGI

molecule="C/C(Cc1ccc2c(c1)OCO2)=N\\NC(=O)C(C)Sc1nnc(SC(C)C(=O)N/N=C(\\C)Cc2ccc3c(c2)OCO3)s1 (configuration not stated)" reported_measurement="> 100 µM"
molecule="O=C1C2C3C=CC(C2C(=O)N1CN1CCSCC1)C1C2C(=O)N(CN4CCSCC4)C(=O)C2C31 (configuration not stated)" reported_measurement="> 100 µM"
molecule=C=CCCCCCCCCC(=O)O reported_measurement="394 µM"
molecule=O=c1c(Cl)cc2nc3ccccc3sc-2c1Cl reported_measurement="32.3 µM"
molecule=COC[C@H](C)N=CN1CCc2ccccc2C1(Cc1ccccc1)Cc1ccccc1 reported_measurement="37 µM"

Problem: Dear colleague, please send me the reported TGI for O=C1/C(=C/c2ccc(Cl)cc2)CSC/C1=C\c1ccc(Cl)cc1 when you can.
Result: 5.59 µM

Problem: Dear colleague, please send me the reported TGI for CN(C)c1ccc2nc(CC(O)(C(F)(F)F)C(F)(F)F)ccc2c1 when you can.
Result: > 10 µM

Problem: Dear colleague, please send me the reported TGI for O=C1NC(=S)NC(=O)C1=C/C=C/c1ccc([N+](=O)[O-])cc1 when you can.
Result: 44.3 µM

Problem: Dear colleague, please send me the reported TGI for C/C(=N/Nc1nc(C)cc(=O)[nH]1)C(=O)O when you can.
Result: > 100 µM
